target: Papain (Carica papaya, UniProt P00784)
pKi: −log10 of the molar value. Where a SMILES comes first, the peptide text is derived from it. The star is where a group is joined. Boc = CC(C)(C)OC(=O)*
propertyName: pKi

CC[C@H](NC(=O)OC(C)(C)C)C(=O)NCC#N
5.27
N#CCNC(=O)[C@H](Cc1ccccc1)NC(=O)OCc1ccccc1
6.44
N#CCNC(=O)CNS(=O)(=O)c1ccc2ccccc2c1
5.00
CC(C)C[C@H](NC(=O)OCc1ccccc1)C(=O)NCC#N
5.51
CSCC[C@H](NC(=O)OC(C)(C)C)C(=O)NCC#N
6.19
CC(C)(C)OC(=O)N[C@@H](Cc1ccccc1-c1ccccc1)C(=O)NCC#N
3.52
CC(C)(C)OC(=O)N[C@@H](Cc1ccccc1F)C(=O)NCC#N
6.40
CC(C)(C)OC(=O)N[C@@H](Cc1cccc(F)c1)C(=O)NCC#N
6.30

a = CC(C)(C)OC(=O)N[C@@H](Cc1ccco1)C(=O)NCC#N
b = CC(=O)CNC(=O)[C@H](Cc1ccccc1)NC(=O)OC(C)(C)C
c = CC(C)(C)OC(=O)N[C@@H](Cc1ccccc1)C(=O)NCC=O (Boc-Phe-Gly-aldehyde)
d = CC(C)(C)OC(=O)N[C@@H](CCc1ccccc1)C(=O)NCC#N
Falling order of pKi, please. To answer, write out the labels according to the requested order.
c, a, d, b

A = CC(C)(C)OC(=O)N[C@@H](Cc1c(F)c(F)c(F)c(F)c1F)C(=O)NCC#N
B = CC(C)(C)OC(=O)N[C@H](C(=O)NCC#N)c1ccccc1
Record comparison, field pKi: mark the lower of A and B . Give the chosen item's label as your response.
B
(B: 4.08, A: 4.85)

----------
target: Cathepsin S (Homo sapiens, UniProt P25774)
Sequence (P25774 whole entry): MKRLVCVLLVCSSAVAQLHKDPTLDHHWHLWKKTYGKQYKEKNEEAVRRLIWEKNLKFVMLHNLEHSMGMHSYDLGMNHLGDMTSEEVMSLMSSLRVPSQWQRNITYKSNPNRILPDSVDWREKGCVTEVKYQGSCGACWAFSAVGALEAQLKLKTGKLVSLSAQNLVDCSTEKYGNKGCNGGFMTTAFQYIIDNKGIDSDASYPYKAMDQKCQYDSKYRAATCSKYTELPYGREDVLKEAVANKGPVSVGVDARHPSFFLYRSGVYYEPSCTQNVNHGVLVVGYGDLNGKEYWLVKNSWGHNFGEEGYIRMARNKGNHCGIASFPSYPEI
propertyName: Ki

C=CCNC(=O)[C@H](Cc1ccccc1)NC(=O)OC(C)(C)C
> 100 µM
CC(C)(C)OC(=O)N1CCC[C@H]1C(=O)NCC#N
> 100 µM

Now for another entry.
# return recorded Ki for entry CC(C)(C)OC(=O)NCC(=O)NCC#N
> 1000 µM

----------
target: Papain (Carica papaya)
Sequence (P00784 whole entry): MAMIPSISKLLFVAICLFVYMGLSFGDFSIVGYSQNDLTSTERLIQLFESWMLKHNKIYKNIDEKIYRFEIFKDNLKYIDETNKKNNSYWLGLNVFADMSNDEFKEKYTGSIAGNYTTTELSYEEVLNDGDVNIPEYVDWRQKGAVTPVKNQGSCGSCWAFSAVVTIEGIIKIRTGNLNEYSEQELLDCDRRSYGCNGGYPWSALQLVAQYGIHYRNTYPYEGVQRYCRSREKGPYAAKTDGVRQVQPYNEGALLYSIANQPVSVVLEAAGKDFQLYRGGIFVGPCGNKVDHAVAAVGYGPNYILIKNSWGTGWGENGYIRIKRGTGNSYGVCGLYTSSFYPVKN
assayComment: Inhibitory activity against papain using Z-Phe-Arg-NHNp substrate
pKi: −log10 of the molar value.
propertyName: pKi

CC(C)(C)OC(=O)N[C@@H](CC1CCCCC1)C(=O)NCC#N
5.66
CC[C@@H](C)[C@H](NC(=O)OC(C)(C)C)C(=O)NCC#N
4.59
CC(C)(C)OC(=O)N[C@@H](Cc1ccc(Br)cc1)C(=O)NCC#N
7.54

I = CC(C)(C)OC(=O)N[C@@H](Cc1ccc(F)cc1)C(=O)NCC#N
II = CC(C)(C)OC(=O)N[C@@H](Cc1ccc(-c2ccccc2)cc1)C(=O)NCC#N
// max by pKi over [ I , II ] Give the chosen item's label as your response.
II

----------
target: Papain (Carica papaya)
Sequence (P00784 whole entry): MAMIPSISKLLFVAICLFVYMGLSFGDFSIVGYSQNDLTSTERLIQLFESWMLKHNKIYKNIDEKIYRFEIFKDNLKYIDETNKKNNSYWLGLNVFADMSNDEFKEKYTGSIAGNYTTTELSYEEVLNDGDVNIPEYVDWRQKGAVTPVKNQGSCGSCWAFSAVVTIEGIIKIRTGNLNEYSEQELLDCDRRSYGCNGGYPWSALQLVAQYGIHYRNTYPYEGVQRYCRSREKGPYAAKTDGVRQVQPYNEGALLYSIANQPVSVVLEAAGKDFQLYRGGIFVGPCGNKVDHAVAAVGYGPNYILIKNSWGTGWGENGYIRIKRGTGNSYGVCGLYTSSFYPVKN
pKi: −log10 of the molar value.
propertyName: pKi

CCCC[C@H](NC(=O)OC(C)(C)C)C(=O)NCC#N
5.80

A = CC(C)C[C@H](NC(=O)OC(C)(C)C)C(=O)NCC#N
B = CC(=O)N[C@@H](Cc1ccccc1)C(=O)NCC#N
C = CC(C)(C)OC(=O)N1CCC[C@H]1C(=O)NCC#N
D = C[C@H](NC(=O)OC(C)(C)C)C(=O)NCC#N
Falling order of pKi, please. To answer, write out the labels according to the requested order.
B, A, D, C
(B: 6.42, A: 5.70, D: 4.66, C: 3.27)

----------
Readings of pKi for the listed compounds
target: Papain (Carica papaya)
Sequence (P00784 whole entry): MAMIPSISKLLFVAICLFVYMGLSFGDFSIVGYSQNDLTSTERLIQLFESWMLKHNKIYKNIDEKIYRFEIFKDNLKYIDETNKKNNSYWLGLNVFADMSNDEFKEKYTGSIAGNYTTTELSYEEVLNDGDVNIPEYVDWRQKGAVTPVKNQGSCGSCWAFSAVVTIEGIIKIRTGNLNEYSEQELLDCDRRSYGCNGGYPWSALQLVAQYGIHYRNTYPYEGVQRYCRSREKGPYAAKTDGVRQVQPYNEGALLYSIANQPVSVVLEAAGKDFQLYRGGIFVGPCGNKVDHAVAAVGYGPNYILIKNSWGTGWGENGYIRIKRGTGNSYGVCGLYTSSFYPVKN
pKi: −log10 of the molar value.

Examples from the recorded data:
CN(CC#N)C(=O)[C@H](Cc1ccccc1)NC(=O)OC(C)(C)C
< 4.00
CC(C)(C)OC(=O)NCC(=O)NCC#N
< 2.52

Now for another entry.
Provide the reported pKi (system: Papain (Carica papaya)) for CC(C)(C)OC(=O)N[C@@H](Cc1cccc(Br)c1)C(=O)NCC#N
6.48
